Target: RecO (Escherichia coli, UniProt P0A7H3)
Construct: His-tag (TEV site) (N, cleaved yes); made in house; host or cells: E. coli Rosetta cells
Sequence (P0A7H3 whole entry): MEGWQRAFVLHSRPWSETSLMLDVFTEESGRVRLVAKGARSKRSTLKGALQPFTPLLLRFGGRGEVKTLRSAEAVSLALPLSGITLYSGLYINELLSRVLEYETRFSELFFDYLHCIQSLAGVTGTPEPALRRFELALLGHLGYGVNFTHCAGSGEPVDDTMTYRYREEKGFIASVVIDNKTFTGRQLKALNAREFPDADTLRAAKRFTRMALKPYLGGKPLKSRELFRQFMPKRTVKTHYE
Assay: biochemical
Type: binding
Conditions: 0.5 μM RecO, 50 nM F-wtSSB tracer, 0–500 μM unlabeled peptide, 30 min room temperature; 20 mM Tris-HCl pH 8.0, 200 mM NaCl, 10% glycerol, 0.01% Triton-X 100; 25 °C; triplicate; read-out: IC50 on RecO, competitive fluorescence anisotropy
Experimental: Triplicate measurements were performed using a Clariostar Plus Microplate Reader in 384-well plates for all fluorescence anisotropy (FA) experiments. […] Competition fluorescence anisotropy experiments were carried out as follows: protein (0.5 μM either ExoI or RecO) was incubated with 50 nM F-wtSSB peptide and 0–500 μM unlabeled wtSSB (or a variant) peptide for 30 min at room temperature. For direct fluorescence anisotropy measurements, 16 µM ExoI and 7.5 µM RecO were used in the first well. […]
Where a SMILES comes first, the peptide text is derived from it. [ ]: non-standard residue; d: D form. Phe(3-Cl) = N[C@@H](Cc1cccc(Cl)c1)C(=O)O; Phe(4-Cl) = N[C@@H](Cc1ccc(Cl)cc1)C(=O)O; Phe(4-F) = N[C@@H](Cc1ccc(F)cc1)C(=O)O; 3Pal = N[C@@H](Cc1cccnc1)C(=O)O; β3hF = N[C@H](CC(=O)O)Cc1ccccc1; NMeD = CN[C@@H](CC(=O)O)C(=O)O
ENDPOINT: pIC50
Friendly reminder that pIC50 comes from taking -log10 of the concentration in mol/L.

Consider the compound CC[C@H](C)[C@H](NC(=O)[C@H](CC(=O)O)NC(=O)[C@H](CC(=O)O)NC(=O)[C@H](CC(=O)O)NC(=O)C[C@H](Cc1ccccc1)NC(=O)[C@H](CC(=O)O)NC(C)=O)C(=O)N1CCC[C@H]1C(=O)N[C@@H](Cc1ccccc1)C(=O)O [β3-Phe2] (Ac-D[β3hF]DDDIPF-OH) . State its measured pIC50.
5.44

---
Consider the compound CC[C@H](C)[C@H](NC(=O)[C@H](CC(=O)O)NC(=O)[C@H](CC(=O)O)NC(=O)[C@H](CC(=O)O)NC(=O)[C@H](Cc1ccc(F)cc1)NC(=O)[C@H](CC(=O)O)NC(C)=O)C(=O)N1CCC[C@H]1C(=O)N[C@@H](Cc1ccccc1)C(=O)O [4-F-Phe2] (Ac-D[Phe(4-F)]DDDIPF-OH) . State its measured pIC50.
5.52

Consider the compound CC[C@H](C)[C@H](NC(=O)[C@H](CC(=O)O)NC(=O)[C@H](CC(=O)O)NC(=O)[C@H](CC(=O)O)NC(=O)[C@H](Cc1cccnc1)NC(=O)[C@H](CC(=O)O)NC(C)=O)C(=O)N1CCC[C@H]1C(=O)N[C@@H](Cc1ccccc1)C(=O)O [3Pal2] (Ac-D[3Pal]DDDIPF-OH) . State its measured pIC50.
4.93

Consider the compound CC[C@H](C)[C@H](NC(=O)[C@H](CC(=O)O)NC(=O)[C@@H](CC(=O)O)NC(=O)[C@H](CC(=O)O)NC(=O)[C@H](Cc1ccccc1)NC(=O)[C@H](CC(=O)O)NC(C)=O)C(=O)N1CCC[C@H]1C(=O)N[C@@H](Cc1ccccc1)C(=O)O [D-Asp4] (Ac-DFD[dD]DIPF-OH) . State its measured pIC50.
5.23

Consider the compound CC(=O)N[C@@H](CC(=O)O)C(=O)N[C@@H](Cc1ccc(Cl)cc1)C(=O)N(C)[C@@H](CC(=O)O)C(=O)N[C@@H](CC(=O)O)C(=O)N[C@@H](CCC(=O)O)C(=O)N[C@@H](CC(C)C)C(=O)N1CCC[C@H]1C(=O)N[C@@H](Cc1cccc(Cl)c1)C(=O)O [R1-sSSB-Ct] (Ac-D[Phe(4-Cl)][NMeD]DELP[Phe(3-Cl)]-OH) . State its measured pIC50.
5.48

Consider the compound CC[C@H](C)[C@H](NC(=O)[C@H](CC(=O)O)NC(=O)[C@H](CC(=O)O)NC(=O)[C@H](CC(=O)O)NC(=O)[C@@H](Cc1ccccc1)NC(=O)[C@H](CC(=O)O)NC(C)=O)C(=O)N1CCC[C@H]1C(=O)N[C@@H](Cc1ccccc1)C(=O)O [D-Phe2] (Ac-D[dF]DDDIPF-OH) . State its measured pIC50.
5.56

Consider the compound CC[C@H](C)[C@H](NC(=O)[C@H](CC(=O)O)N(C)C(=O)[C@H](CC(=O)O)NC(=O)[C@H](CC(=O)O)NC(=O)[C@H](Cc1ccccc1)NC(=O)[C@H](CC(=O)O)NC(C)=O)C(=O)N1CCC[C@H]1C(=O)N[C@@H](Cc1ccccc1)C(=O)O [NM-Asp5] (Ac-DFDD[NMeD]IPF-OH) . State its measured pIC50.
5.03
